target: Aurora kinase A (Homo sapiens); assay: Inhibition of recombinant AURKA (unknown origin) after 60 mins by z'-lyte kinase assay
Sequence (O14965 whole entry): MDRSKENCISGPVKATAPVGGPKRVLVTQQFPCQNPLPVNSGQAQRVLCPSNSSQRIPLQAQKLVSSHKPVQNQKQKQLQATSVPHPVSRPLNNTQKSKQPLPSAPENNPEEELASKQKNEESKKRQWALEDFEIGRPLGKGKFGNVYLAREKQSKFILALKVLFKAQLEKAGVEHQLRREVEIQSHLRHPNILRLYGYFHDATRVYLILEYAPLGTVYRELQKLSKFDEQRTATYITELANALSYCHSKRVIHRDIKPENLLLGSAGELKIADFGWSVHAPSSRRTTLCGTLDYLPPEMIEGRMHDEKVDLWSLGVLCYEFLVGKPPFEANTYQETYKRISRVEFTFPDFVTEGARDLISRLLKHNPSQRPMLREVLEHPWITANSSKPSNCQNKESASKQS
pIC50: −log10 of the molar value.
measured.endpoint: pIC50

- compound: "O=C1/C(=C\\c2ccc(O)c(O)c2)Oc2ccccc21"
  subject.of.test: "Aurora kinase A (Homo sapiens)"
  reading: 5.87
